# System: Avena fatua (AVEFA)
# test.name: Pre-emergence herbicidal activity, glasshouse pot test
# Format: in vivo
# condition.details: 312 h, rate 250 g/ha, evaluated after 13 days, 100=total damage to plant, 0=no damage to plant
Where pest or weed control at 250 g/ha equals or exceeds 30%, the correct label is 1.0; where it does not, the label is 0.0.

Decide: pest or weed control at 250 g/ha of CCc1ccc(Oc2cnc3cc(Cl)ccc3n2)cc1C1=C(O)[C@H]2[C@H]3CC[C@H](C3)[C@H]2C1=O [Compound A-10] >= 30%?
0.0

Also, CCc1ccc(Oc2ccc(Br)cc2)cc1C1=C(O)[C@H]2[C@@H](C1=O)[C@@H]1CC[C@H]2O1 [Compound A-4] please.
1.0

Also, CCc1ccc(Oc2nc3ccc(OC)cc3s2)cc1C1=C(O)CCC1=O [Compound A-75] please.
0.0

Also, CCc1ccc(Oc2cnc3ccc(Br)cc3n2)cc1C1=C(O)C2C(C1=O)[C@H]1CC[C@@H]2CC1 (stereo partly drawn) [Compound A-93] please.
0.0

Also, CCc1ccc(Oc2ncc(C(F)(F)F)cc2Cl)cc1C1=C(O)C2C(C1=O)[C@H]1CC[C@@H]2CC1 (stereo partly drawn) [Compound A-88] please.
1.0

Also, CCc1ccc(Oc2ccc(F)cc2)cc1C1=C(O)C2C(C1=O)[C@H]1CC[C@@H]2CC1 (stereo partly drawn) [Compound A-30] please.
0.0

Also, CCc1ccc(Oc2ncc(Cl)cc2F)cc1C1=C(O)C2C(C1=O)[C@H]1CC[C@@H]2CC1 (stereo partly drawn) [Compound A-14] please.
1.0

Also, CCc1ccc(Oc2cnc3cc(Cl)ccc3n2)cc1C1=C(O)[C@H]2[C@@H](C1=O)[C@@H]1CC[C@H]2O1 [Compound A-51] please.
1.0

Also, CCc1ccc(Oc2ccc(Cl)cc2F)cc1C1=C(O)CCC1=O [Compound A-40] please.
0.0

Also, CCc1ccc(Oc2ccc(Br)cc2Cl)cc1C1=C(O)[C@H]2[C@H]3CC[C@H](C3)[C@H]2C1=O [Compound A-20] please.
0.0

Also, CCc1ccc(Oc2ccc(Cl)cc2Cl)cc1C1=C(O)[C@H]2[C@@H](C1=O)[C@@H]1CC[C@H]2O1 [Compound A-44] please.
1.0

Also, CCc1ccc(Oc2ccc(F)c(Cl)c2)cc1C1=C(O)[C@H]2[C@@H](C1=O)[C@@H]1CC[C@H]2O1 [Compound A-49] please.
1.0

Also, CCc1ccc(Oc2ncc(C(F)(F)F)cc2C(F)(F)F)cc1C1=C(O)CCC1=O [Compound A-71] please.
1.0

Also, CCc1ccc(Oc2ccc(Cl)cc2)cc1C1=C(O)C2C(C1=O)[C@H]1CC[C@@H]2CC1 (stereo partly drawn) [Compound A-31] please.
0.0

Also, CCc1ccc(Oc2ccc3cc(Cl)ccc3n2)cc1C1=C(O)CCC1=O [Compound A-43] please.
0.0

Also, CCc1ccc(Oc2ccc(C(F)(F)F)cn2)cc1C1=C(O)CCC1=O [Compound A-60] please.
1.0

Also, CCc1ccc(Oc2cnc3cc(Cl)ccc3n2)cc1C1=C(O)C2C(C1=O)[C@H]1CC[C@@H]2CC1 (stereo partly drawn) [Compound A-13] please.
0.0

Also, CCc1ccc(Oc2ncc(Cl)cc2Cl)cc1C1=C(O)C2C(C1=O)[C@H]1CC[C@@H]2CC1 (stereo partly drawn) [Compound A-90] please.
1.0

Also, CCc1ccc(Oc2ccc(Cl)c(F)c2)cc1C1=C(O)CCC1=O [Compound A-41] please.
0.0

Also, CCc1ccc(Oc2ccc(Cl)cc2)cc1C1=C(O)[C@H]2[C@@H](C1=O)[C@@H]1CC[C@H]2O1 [Compound A-1] please.
1.0

Also, CCc1ccc(Oc2ccc(Br)cc2F)cc1C1=C(O)CCC1=O [Compound A-42] please.
0.0

Also, CCc1ccc(Oc2ccc(C#N)c(Cl)c2)cc1C1=C(O)CCC1=O [Compound A-56] please.
0.0

Also, CCc1ccc(Oc2ccc(Cl)c(Cl)c2)cc1C1=C(O)CCC1=O [Compound A-17] please.
0.0
